Data credit: patent US20220195015A1

Reported EC50 values for a set of binders
Biological target: SARS-CoV-2 RBD (S protein residues 319-539), wild type (SARS-CoV-2, UniProt P0DTC2 319-539)
Assay: ELISA, RBD coated on plate, mAb titrated

Recorded results for 7 binders are shown here.
Query: EC50; subject: C590 (antibody, V domains shown) VH: QVQLVQSGAEVKKPGASVKVSCKVSGYNLTELSMYWVRQAPGKGLEWMGGFDPEDGGPIHAQKFQGRVTMTEDPSTDTAYMELRSLRSEDTALYYCATGGLFMIRGLEIWGRGTLVTVSS VL: EIVLTQSPGTLSLSPGERATLSCRASQSISYTSLAWYQQKPGQAPRLLIFGASRGATGTPDRFSGSWSGTDFTLTISRLEPEDFAVYYCQQYGNSPRLSFGGGTKVEIK 2.81 ng/mL

Query (binder): C582 (antibody, V domains shown) VH: QVQLVESGGGVVQPGRSLRLSCVASGFTFSYFDMHWVRQAPGKGLEWVALISHDGSTTFYGDSARGRFTISRDNSRNTLDLQMNSLRPEDTAVYFCAKPVDAAMFDFWGQGTLVTVS VL: SYELTQPPSVSVAPGKTARITCGGNNIGSKSVHWYQQRPGQAPVLVIYYDSDRPSGIPERFSGSNSGNTATLTISRVEAGDEADFYCQVWDRSTNHLVVFGGGTQLTVL ; field requested: EC50 8.43 ng/mL

Requested field: EC50. Item: C584 (antibody, V domains shown) VH: EVQLVESGGGLVQPGGSLRLSCAASGFTFSTYDMHWVRQATGKGLEWVSAIGTAGDKYYPGSVKGRFTISRENAKNSLYLQMNSLRAGDTAVYYCVRAGYSSGWPLYWYFDLWGRGTLVTVSS VL: DIQMTQSPSSLSASVGDRVTITCRASQSISSYLNWYQQKPGKAPKFLIYAASSLQSGVPSRFSGSGSGTDFTLTISNLQPEDFATYYCQQSYRTPPEFTFGPGTKVDIK 10.5 ng/mL

Fill blank: measured EC50 of the binder C583 (antibody, V domains shown) VH: EVQLVESGGGLIQPGGSLRLSCAASILTVSRNYMSWVRQAPGKGLEWVSSIYSGGTTYYADSVKGRFTISRDDSKNTLYLQMNSLRAEDTAVYYCARPVVGGRAGMDVWGQGTTVTVSS VL: DIQMTQSPSSLSASVGDRVTITCQASQDINKYLNWYQQKPGKAPKLLIYDASNLETGVPSRFSGSGSGTDFTFTISSLQPEDIGTFYCLHNDNPPLTFGGGTKVEIK is ____. 4.42 ng/mL

Return reported EC50; argument: C585 (antibody, V domains shown) VH: QVQLQESGPGLVKPSETLSLTCTVSGDSISSYFWSWIRQPPGRGLEWIGYIHDSVNTNYNPSLKSRVTISVDTSKSQFSLRLSSVTAADTAVYYCARCAWLRGSFDYWGQGTLVTVSS VL: NFMLTQPHSVSESPGKTVTISCTGSSGSIASNYVQWYQQRPGSAPTTVIYEDNQRPSGVPDRFSGSIDSSSNSASLTISGLKTEDEADYYCQSYDFSSHYVFGTGTKVTVL 11 ng/mL

Using the record for C587 (antibody, V domains shown) VH: QVQLVQSGAEVKKSGSSVKVSCKASGGSFSSYAISWVRQAPGQGLEWMGGIIPIFGTAKYAQKFQGRVTITADESTSTAYMELSSLRSEDTAVYYCASRWEQLNGGSWHYFDYWGQGTLVTVSS VL: QSALTQPASVSGSPGQSITISCTGTRSDVGRNNLVSWYQHHPGKAPKVMIYEGSKRPSGVSTRFSGSKSGNTASLTISGLQAEDEADYYCCSYAGSSTFEGVFGGGTKLTVL , report its EC50. 4.39 ng/mL

// query EC50 value for entry C586 (antibody, V domains shown) VH: EVQLVESGGGLIQPGGSLRLSCTASGLIVSSNYMSWIRQAPGKGLEWVSLIYSGGSTFYADSVKGRFTISRDNSKNTLFLHMNSLRAEDTAVYYCARHPYGTDVWGQGTTVTVSS VL: DIQMTQSPSSLSASVGDRVTITCQASQDIVKYLNWYQQKSGKAPKLLIHDASNLETGVTSRFSGSGSGTHFTFTISSLQPEDLATYYCQQYDNLPITFGQGTRLEIK 5.42 ng/mL

The record that follows has no EC50 shown yet.
Could you tell me which EC50 is on file for C588 (antibody, V domains shown) VH: EVQLVESGGGLVQPGGSLKLSCAASGFTFSGSAMHWVRQASGKGLEWVGRIRNKANSYATAYGASVRGRFTVSRDDSKNTAYLQMNSLKIEDTAVYYCTKDIAAGIPALNWFDSWGQGTLVTVSS VL: EIVLTQSPATLSLSPGERATLSCRASQSVSSYLAWYQQKPGQAPRLLIYDASNRATGIPARFSGSGSGTDFTLTISSLEPEDFAVYYCQQHTNWPPRITFGGGTKVEIK ? 1.36 ng/mL
